Origin of the recorded values: ChEMBL document CHEMBL3739364

Measured target: Amine oxidase [flavin-containing] A (Homo sapiens)
Sequence (P21397 whole entry): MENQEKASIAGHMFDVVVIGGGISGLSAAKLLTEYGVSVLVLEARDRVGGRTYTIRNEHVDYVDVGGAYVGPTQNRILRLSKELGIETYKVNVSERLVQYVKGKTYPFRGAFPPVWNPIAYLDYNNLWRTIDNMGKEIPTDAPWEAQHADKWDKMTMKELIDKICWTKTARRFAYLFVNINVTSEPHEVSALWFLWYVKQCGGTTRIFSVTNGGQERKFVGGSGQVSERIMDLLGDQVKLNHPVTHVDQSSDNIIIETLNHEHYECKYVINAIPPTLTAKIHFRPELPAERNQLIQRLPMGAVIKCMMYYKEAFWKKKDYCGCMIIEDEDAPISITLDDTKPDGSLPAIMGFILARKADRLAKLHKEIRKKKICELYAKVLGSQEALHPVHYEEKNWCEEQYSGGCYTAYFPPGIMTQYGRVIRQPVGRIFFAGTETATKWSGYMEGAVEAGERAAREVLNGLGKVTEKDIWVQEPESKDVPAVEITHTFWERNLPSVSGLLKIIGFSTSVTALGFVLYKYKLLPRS
Assay info: Reversible inhibition of human MAO-A
# IC50 listing for each entry below
Measurement label: IC50 (µM)

- Test smiles: "CC(=O)NC[C@H]1CN(c2ccc(N3CCOCC3)c(F)c2)C(=O)O1"
  Meas value: 46
- Test smiles: "Cn1nnc(-c2ccc(-c3ccc(N4C[C@H](CO)OC4=O)cc3F)cn2)n1"
  Meas value: 8.7

###

Measured target: Amine oxidase [flavin-containing] B (Homo sapiens, UniProt P27338)
Sequence (P27338 whole entry): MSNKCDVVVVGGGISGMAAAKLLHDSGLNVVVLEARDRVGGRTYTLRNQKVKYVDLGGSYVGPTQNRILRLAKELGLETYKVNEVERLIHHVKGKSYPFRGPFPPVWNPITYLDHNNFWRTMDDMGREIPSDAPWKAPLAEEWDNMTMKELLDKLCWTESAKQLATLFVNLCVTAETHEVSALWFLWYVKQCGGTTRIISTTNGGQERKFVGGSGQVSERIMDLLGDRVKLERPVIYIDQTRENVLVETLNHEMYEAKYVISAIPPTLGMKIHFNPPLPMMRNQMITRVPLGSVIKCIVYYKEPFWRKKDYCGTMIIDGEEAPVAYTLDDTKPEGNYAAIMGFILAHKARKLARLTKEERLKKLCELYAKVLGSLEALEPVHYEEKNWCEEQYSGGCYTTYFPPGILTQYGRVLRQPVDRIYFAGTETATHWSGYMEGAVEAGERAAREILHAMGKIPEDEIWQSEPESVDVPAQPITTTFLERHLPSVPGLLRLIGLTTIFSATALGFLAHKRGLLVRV
Assay info: Inhibition of human recombinant MAO-B using p-tyramine as substrate after 15 mins by UV/Vis spectrophotometer analysis
pIC50: −log10 of the molar value.
# pIC50 listing for each entry below
Measurement label: pIC50

- Test smiles: "O=C(C1CC1)N(O)C[C@H]1CN(c2ccc(N3CCOCC3)c(F)c2)C(=O)O1"
  Measured target: "Amine oxidase [flavin-containing] B (Homo sapiens, UniProt P27338)"
  Meas value: 4.04
- Test smiles: "O=C1O[C@@H](CNO)CN1c1ccc(N2CCOCC2)c(F)c1"
  Measured target: "Amine oxidase [flavin-containing] B (Homo sapiens, UniProt P27338)"
  Meas value: 3.95
- Test smiles: "CCC(=O)N(O)C[C@H]1CN(c2ccc(N3CCOCC3)c(F)c2)C(=O)O1"
  Measured target: "Amine oxidase [flavin-containing] B (Homo sapiens, UniProt P27338)"
  Meas value: 4.00
- Test smiles: "CC(C)C(=O)ON(C[C@H]1CN(c2ccc(N3CCOCC3)c(F)c2)C(=O)O1)C(=O)C(C)C"
  Measured target: "Amine oxidase [flavin-containing] B (Homo sapiens, UniProt P27338)"
  Meas value: 3.97
- Test smiles: "CC(C)C(=O)N(O)C[C@H]1CN(c2ccc(N3CCOCC3)c(F)c2)C(=O)O1"
  Measured target: "Amine oxidase [flavin-containing] B (Homo sapiens, UniProt P27338)"
  Meas value: 3.97
- Test smiles: "CCC(=O)ON(C[C@H]1CN(c2ccc(N3CCOCC3)c(F)c2)C(=O)O1)C(=O)CC"
  Measured target: "Amine oxidase [flavin-containing] B (Homo sapiens, UniProt P27338)"
  Meas value: 3.77

###

# inhibition at 50 min listing for each entry below
Measured target: MAO-B (amine oxidase [flavin-containing] B) (Homo sapiens, UniProt P27338)
Sequence (P27338 whole entry): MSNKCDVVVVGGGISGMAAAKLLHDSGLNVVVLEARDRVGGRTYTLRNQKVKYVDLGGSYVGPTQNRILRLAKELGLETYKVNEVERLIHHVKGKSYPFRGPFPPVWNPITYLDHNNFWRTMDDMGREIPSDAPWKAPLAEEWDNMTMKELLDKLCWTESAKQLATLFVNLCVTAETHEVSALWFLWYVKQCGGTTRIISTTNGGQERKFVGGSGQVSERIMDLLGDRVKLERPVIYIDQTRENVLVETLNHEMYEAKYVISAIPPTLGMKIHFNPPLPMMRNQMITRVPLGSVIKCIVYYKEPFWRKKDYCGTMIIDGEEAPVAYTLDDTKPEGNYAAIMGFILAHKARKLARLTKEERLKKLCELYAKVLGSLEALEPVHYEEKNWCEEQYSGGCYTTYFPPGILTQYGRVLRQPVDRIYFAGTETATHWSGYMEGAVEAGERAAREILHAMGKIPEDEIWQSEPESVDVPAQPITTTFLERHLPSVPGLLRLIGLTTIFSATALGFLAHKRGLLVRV
Assay info: Inhibition of human recombinant MAO-B using p-tyramine as substrate at 50 to 200 uM measured up to 50 mins by ELISA screening analysis
Measurement conditions: probe p-tyramine

- Test smiles: "CC(=O)ON(C[C@H]1CN(c2ccc(N3CCOCC3)c(F)c2)C(=O)O1)C(C)=O"
  inhibition at 50 min: "< 50%"
- Test smiles: "CCC(=O)N(O)C[C@H]1CN(c2ccc(N3CCOCC3)c(F)c2)C(=O)O1"
  inhibition at 50 min: "≥ 50%"
- Test smiles: "O=C(ON(C[C@H]1CN(c2ccc(N3CCOCC3)c(F)c2)C(=O)O1)C(=O)C1CC1)C1CC1"
  inhibition at 50 min: "< 50%"
- Test smiles: "CC(C)C(=O)ON(C[C@H]1CN(c2ccc(N3CCOCC3)c(F)c2)C(=O)O1)C(=O)C(C)C"
  inhibition at 50 min: "≥ 50%"
- Test smiles: "O=C(C1CC1)N(O)C[C@H]1CN(c2ccc(N3CCOCC3)c(F)c2)C(=O)O1"
  inhibition at 50 min: "≥ 50%"
- Test smiles: "O=C1O[C@@H](CNO)CN1c1ccc(N2CCOCC2)c(F)c1"
  inhibition at 50 min: "≥ 50%"
- Test smiles: "CC(=O)N(O)C[C@H]1CN(c2ccc(N3CCN(C(C)=O)CC3)c(F)c2)C(=O)O1"
  inhibition at 50 min: "< 50%"
- Test smiles: "CCC(=O)ON(C[C@H]1CN(c2ccc(N3CCOCC3)c(F)c2)C(=O)O1)C(=O)CC"
  inhibition at 50 min: "≥ 50%"
- Test smiles: "CC(C)C(=O)N(O)C[C@H]1CN(c2ccc(N3CCOCC3)c(F)c2)C(=O)O1"
  inhibition at 50 min: "≥ 50%"
